Give IC50 for every item shown.
- system_tested: Secreted chorismate mutase (Mycobacterium tuberculosis (strain ATCC 25618 / H37Rv), UniProt P9WIB9)
- Sequence (P9WIB9 whole entry): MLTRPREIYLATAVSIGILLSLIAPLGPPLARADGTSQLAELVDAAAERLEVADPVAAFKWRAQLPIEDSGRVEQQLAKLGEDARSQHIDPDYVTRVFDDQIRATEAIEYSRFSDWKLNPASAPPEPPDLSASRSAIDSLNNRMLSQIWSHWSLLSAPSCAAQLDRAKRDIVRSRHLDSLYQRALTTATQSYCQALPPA
- assay_explanation: CM Assay
- condition_label: 37 °C
Answers are plain numbers, in µM.

INSERT INTO results (compound, number) VALUES
  ('O=C1Nc2ccc(N3CCNCC3)cc2C1=O', 39.9),
  ('O=C1Nc2ccccc2/C1=C/c1ccc([N+](=O)[O-])s1', 0.93),
  ('CC(=O)N1C(=O)C(=NC(=O)NN)c2ccccc21', 25),
  ('O=C1Nc2ccc(N3CCCCC3)cc2C1=O', 25.6);

For the 6 compounds below, give their IC50 values.
1. CC(=O)N1C(=O)C(=O)c2ccccc21
2. NNC(=O)/N=C1\C(=O)Nc2ccccc21
3. CN1C(=O)C(=O)c2ccccc21 [1-methyl-2,3-dihydro-1H-indole-2,3-dione]
4. CN1CCN(c2ccc3c(c2)C(=O)C(=O)N3)CC1
5. C=CCN1C(=O)C(=O)c2ccccc21
6. O=C1Nc2ccccc2C1=O [2,3-dihydro-1H-indole-2,3-dione]

[0.99, 54.1, 1.96, 31.9, 96.6, 1.08]

* * *

Give log10 of IC50 for every item shown.
- system_tested: Secreted chorismate mutase (Mycobacterium tuberculosis (strain ATCC 25618 / H37Rv), UniProt P9WIB9)
- assay_explanation: CM Assay
- condition_label: 37 °C
Field: value | Transform: log10 | Quantity: IC50 | Unit: µM

Here are 8 molecules together with their reported answers.
INSERT INTO assay_data (molecule, number) VALUES
  ('CC(C)(C)C(=O)N1C(=O)C(=O)c2ccccc21', 1.61),
  ('O=C1Nc2ccccc2/C1=C/c1ccc([N+](=O)[O-])cc1', 0.00),
  ('CCN1C(=O)C(=O)c2ccccc21', 1.36),
  ('O=C1Nc2ccc(-c3cccc(Cl)c3Cl)cc2C1=O', 1.98),
  ('O=C1Nc2ccc(N3CCN(C(=O)c4ccco4)CC3)cc2C1=O', 1.46),
  ('NNC(=S)N=C1C(=O)Nc2ccccc21', 1.83),
  ('O=C1Nc2ccc(N3CCN(c4cccc(C(F)(F)F)c4)CC3)cc2C1=O', 1.75),
  ('O=C1C(=O)N(c2ccccc2)c2ccccc21 [1-phenyl-2,3-dihydro-1H-indole-2,3-dione]', 1.37);

For the 2 molecules below, give their log10 of IC50 values.
1. Cc1ccc(C)c(-c2ccc3c(c2)C(=O)C(=O)N3)c1
2. O=C1Nc2ccc(-c3ccccc3)cc2C1=O

1: 1.56; 2: 1.57

* * *

Give pIC50 for every item shown.
- system_tested: Secreted chorismate mutase (Mycobacterium tuberculosis (strain ATCC 25618 / H37Rv))
- Sequence (P9WIB9 whole entry): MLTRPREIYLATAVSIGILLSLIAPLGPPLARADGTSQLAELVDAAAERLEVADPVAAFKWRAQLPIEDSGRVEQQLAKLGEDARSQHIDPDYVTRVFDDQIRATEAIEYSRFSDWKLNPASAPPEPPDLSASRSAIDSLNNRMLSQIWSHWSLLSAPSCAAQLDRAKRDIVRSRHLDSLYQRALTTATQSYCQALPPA
- assay_explanation: CM Assay
- condition_label: 37 °C
Give bare numbers, as −log10 of the molar value.

Here are 2 molecules together with their reported answers.
INSERT INTO assay_data (molecule, number) VALUES
  ('O=NC1C(=O)Nc2ccccc21 (centres undefined)', 4.01),
  ('CC(C)N1C(=O)C(=O)c2ccccc21', 4.12);

Now look at this entry.
// sample CC(=O)n1c(O)c(NC(=S)N=N)c2ccccc21 , its pIC50 was 4.52

Values compiled from BindingDB's records for doi:10.1111/cbdd.12265.
